Experiment: Olmesartan blood concentration/AUC after 7-day versus single-day dosing
Assay type: in vivo, Korean healthy males
Details: male, human, blood, oral, Time 10 hrs; drug taken only one day; read-out: Blood concentration (ng/mL)/Non-Compliance-1X
Property name: concentration at 10 h
The reply should read as a number followed by its unit.

(Q) What does the record list as concentration at 10 h for CCCc1nc(C(C)(C)O)c(C(=O)O)n1Cc1ccc(-c2ccccc2-c2nnn[nH]2)cc1 [olmesartan] ?
(A) 202 ng/mL

* * *

Experiment: Olmesartan blood concentration/AUC after 7-day versus single-day dosing
Assay type: in vivo, Korean healthy males
Settings: male, human, blood, oral, Time 0 hrs; drug taken only one day; read-out: Blood concentration (ng/mL)/Non-Compliance-1X
Property name: concentration at 0 h (ng/mL)
All answers are understood in ng/mL, so give the number only.

(Q) What value of concentration at 0 h has been recorded for this entry: CCCc1nc(C(C)(C)O)c(C(=O)O)n1Cc1ccc(-c2ccccc2-c2nnn[nH]2)cc1 [olmesartan]
(A) 0

* * *

Experiment: Olmesartan blood concentration/AUC after 7-day versus single-day dosing
Type: in vivo, Korean healthy males
Settings: male, human, blood, oral, 40 mg, Time 6 hrs; dosing every 24 hours for 7 days; read-out: Blood concentration (ng/mL)/Compliance-7X
Property name: concentration at 6 h (ng/mL)
Numbers only here, please. The scale is ng/mL.

(Q) // lookup concentration at 6 h for CCCc1nc(C(C)(C)O)c(C(=O)O)n1Cc1ccc(-c2ccccc2-c2nnn[nH]2)cc1 [olmesartan]
(A) 543

* * *

Experiment: Olmesartan blood concentration/AUC after 7-day versus single-day dosing
Type: in vivo, Korean healthy males
Conditions: male, human, blood, oral, 40 mg, Time 1 hrs; dosing every 24 hours for 7 days; read-out: Blood concentration (ng/mL)/Compliance-7X
Property name: concentration at 1 h (ng/mL)
Form entry: value (ng/mL) — number only.

(Q) Tell me the measured concentration at 1 h of CCCc1nc(C(C)(C)O)c(C(=O)O)n1Cc1ccc(-c2ccccc2-c2nnn[nH]2)cc1 , please.
(A) 858

* * *

Experiment: Olmesartan blood concentration/AUC after 7-day versus single-day dosing
Format: in vivo, Korean healthy males
Details: male, human, blood, oral, 40 mg, Time 10 hrs; dosing every 24 hours for 7 days; read-out: Blood concentration (ng/mL)/Compliance-7X
Property name: concentration at 10 h (ng/mL)
Write it as a number; the unit ng/mL goes unstated.

(Q) Field request: concentration at 10 h | item: CCCc1nc(C(C)(C)O)c(C(=O)O)n1Cc1ccc(-c2ccccc2-c2nnn[nH]2)cc1
(A) 263

* * *

Assay: Olmesartan blood concentration/AUC after 7-day versus single-day dosing
Assay type: in vivo, Korean healthy males
Details: male, human, blood, oral, Time 16 hrs; drug taken only one day; read-out: Blood concentration (ng/mL)/Non-Compliance-1X
Property name: concentration at 16 h

(Q) Item under review: CCCc1nc(C(C)(C)O)c(C(=O)O)n1Cc1ccc(-c2ccccc2-c2nnn[nH]2)cc1 [olmesartan] . Reported concentration at 16 h?
(A) 87.9 ng/mL

* * *

Experiment: Olmesartan blood concentration/AUC after 7-day versus single-day dosing
Format: in vivo, Korean healthy males
Conditions: male, human, blood, oral, Time 2 hrs; drug taken only one day; read-out: Blood concentration (ng/mL)/Non-Compliance-1X
Property name: concentration at 2 h (ng/mL)
Respond numerically; units are ng/mL and should not be typed.

(Q) I am curious: what concentration at 2 h value has been reported for CCCc1nc(C(C)(C)O)c(C(=O)O)n1Cc1ccc(-c2ccccc2-c2nnn[nH]2)cc1 ?
(A) 1000
